# experimental_target: T1, human Y2 receptor (human, UniProt P49146 1-381)
# T1 construct: whole, on cells; used as membrane fraction of hY2R/CHO cells; also called human NPY2R; hY2R
# T1 sequence (looked up): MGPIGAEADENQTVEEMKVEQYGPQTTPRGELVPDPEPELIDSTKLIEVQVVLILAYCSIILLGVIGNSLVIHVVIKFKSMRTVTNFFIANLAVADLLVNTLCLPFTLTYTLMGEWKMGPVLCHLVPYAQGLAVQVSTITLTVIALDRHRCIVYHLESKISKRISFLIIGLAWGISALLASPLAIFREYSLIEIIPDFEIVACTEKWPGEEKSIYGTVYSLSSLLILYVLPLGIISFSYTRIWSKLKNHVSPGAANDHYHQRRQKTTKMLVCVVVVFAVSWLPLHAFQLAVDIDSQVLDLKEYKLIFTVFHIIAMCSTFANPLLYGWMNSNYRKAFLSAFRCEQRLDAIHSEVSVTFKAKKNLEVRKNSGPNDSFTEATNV
# test_details: RBA: [125I]-PYY displacement, hY2R/CHO membranes
Non-standard residues stand in square brackets, D forms with d. No end group written: not given here. *: point of attachment. Morpholinocarbonyl = O=C(N1CCOCC1)*; Amidino = amidino group, N=C(N)*; tBuAla = CC(C)(C)C[C@H](N)C(=O)O; Cha = N[C@@H](CC1CCCCC1)C(=O)O; Phg = N[C@H](C(=O)O)c1ccccc1; hLeu = CC(C)CC[C@H](N)C(=O)O; 4Amb = NCc1ccc(C(=O)O)cc1; hSer = N[C@@H](CCO)C(=O)O; 2Abz = Nc1ccccc1C(=O)O; Aib = CC(C)(N)C(=O)O
assay_readout: IC50 Ratio (vs PYY(3-36))
Report field: quantity (unit follows the number).

See these solved cases before continuing.
binder	IC50 Ratio (vs PYY(3-36))
Ac-S[dP]RH[Cha][Cha]NL[Aib]TRQR[hLeu]-NH2 (SMILES CC(=O)N[C@@H](CO)C(=O)N1CCC[C@@H]1C(=O)N[C@@H](CCCNC(=N)N)C(=O)N[C@@H](Cc1c[nH]cn1)C(=O)N[C@@H](CC1CCCCC1)C(=O)N[C@@H](CC1CCCCC1)C(=O)N[C@@H](CC(N)=O)C(=O)N[C@@H](CC(C)C)C(=O)NC(C)(C)C(=O)N[C@H](C(=O)N[C@@H](CCCNC(=N)N)C(=O)N[C@@H](CCC(N)=O)C(=O)N[C@@H](CCCNC(=N)N)C(=O)N[C@@H](CCC(C)C)C(N)=O)[C@@H](C)O, also called compound No. 199) [Ac-[D-Pro24, Cha27,28, Aib31, homoLeu36]-PYY(23-36)]	20 ratio
Amidino-E[dP]RH[Cha][Cha]NK[Aib]TRQR[Cha]-NH2 (SMILES C[C@@H](O)[C@H](NC(=O)C(C)(C)NC(=O)[C@H](CCCCN)NC(=O)[C@H](CC(N)=O)NC(=O)[C@H](CC1CCCCC1)NC(=O)[C@H](CC1CCCCC1)NC(=O)[C@H](Cc1c[nH]cn1)NC(=O)[C@H](CCCNC(=N)N)NC(=O)[C@H]1CCCN1C(=O)[C@H](CCC(=O)O)NC(=N)N)C(=O)N[C@@H](CCCNC(=N)N)C(=O)N[C@@H](CCC(N)=O)C(=O)N[C@@H](CCCNC(=N)N)C(=O)N[C@@H](CC1CCCCC1)C(N)=O, also called compound No. 190) [Amidino-[Glu23, D-Pro24, Cha27,28,36, Lys30, Aib31]-PYY(23-36)]	0.66 ratio
Ac-E[dP]RH[Cha][Cha]NK[Aib]TRQR[Cha]-NH2 (SMILES CC(=O)N[C@@H](CCC(=O)O)C(=O)N1CCC[C@@H]1C(=O)N[C@@H](CCCNC(=N)N)C(=O)N[C@@H](Cc1c[nH]cn1)C(=O)N[C@@H](CC1CCCCC1)C(=O)N[C@@H](CC1CCCCC1)C(=O)N[C@@H](CC(N)=O)C(=O)N[C@@H](CCCCN)C(=O)NC(C)(C)C(=O)N[C@H](C(=O)N[C@@H](CCCNC(=N)N)C(=O)N[C@@H](CCC(N)=O)C(=O)N[C@@H](CCCNC(=N)N)C(=O)N[C@@H](CC1CCCCC1)C(N)=O)[C@@H](C)O, also called compound No. 137) [Ac-[Glu23, D-Pro24, Cha27,28,36, Lys30, Aib31]-PYY(23-36)]	3.6 ratio
[2Abz]RH[Cha]INWITRQR[Cha]-NH2 (N-terminus assumed; SMILES CC[C@H](C)[C@H](NC(=O)[C@H](CC1CCCCC1)NC(=O)[C@H](Cc1c[nH]cn1)NC(=O)[C@H](CCCNC(=N)N)NC(=O)c1ccccc1N)C(=O)N[C@@H](CC(N)=O)C(=O)N[C@@H](Cc1c[nH]c2ccccc12)C(=O)N[C@H](C(=O)N[C@H](C(=O)N[C@@H](CCCNC(=N)N)C(=O)N[C@@H](CCC(N)=O)C(=O)N[C@@H](CCCNC(=N)N)C(=O)N[C@@H](CC1CCCCC1)C(N)=O)[C@@H](C)O)[C@@H](C)CC, also called compound No. 68) [[Abz(2)24, Cha27,36, Ile28,31, Trp30]-PYY(24-36)]	19 ratio
Morpholinocarbonyl-S[dP]RH[Cha][tBuAla]NK[Aib]TRQR[Cha]-NH2 (SMILES C[C@@H](O)[C@H](NC(=O)C(C)(C)NC(=O)[C@H](CCCCN)NC(=O)[C@H](CC(N)=O)NC(=O)[C@H](CC(C)(C)C)NC(=O)[C@H](CC1CCCCC1)NC(=O)[C@H](Cc1c[nH]cn1)NC(=O)[C@H](CCCNC(=N)N)NC(=O)[C@H]1CCCN1C(=O)[C@H](CO)NC(=O)N1CCOCC1)C(=O)N[C@@H](CCCNC(=N)N)C(=O)N[C@@H](CCC(N)=O)C(=O)N[C@@H](CCCNC(=N)N)C(=O)N[C@@H](CC1CCCCC1)C(N)=O, also called compound No. 187) [Morpholinocarbonyl-[D-Pro24, Cha27,36, Leu(Me)28, Lys30, Aib31]-PYY(23-36)]	0.66 ratio

Q) Quote IC50 Ratio (vs PYY(3-36)) reported for [4Amb]RAYINL[Phg]TRQRY-NH2 (N-terminus assumed; SMILES CC[C@H](C)[C@H](NC(=O)[C@H](Cc1ccc(O)cc1)NC(=O)[C@H](C)NC(=O)[C@H](CCCNC(=N)N)NC(=O)c1ccc(CN)cc1)C(=O)N[C@@H](CC(N)=O)C(=O)N[C@@H](CC(C)C)C(=O)N[C@H](C(=O)N[C@H](C(=O)N[C@@H](CCCNC(=N)N)C(=O)N[C@@H](CCC(N)=O)C(=O)N[C@@H](CCCNC(=N)N)C(=O)N[C@@H](Cc1ccc(O)cc1)C(N)=O)[C@@H](C)O)c1ccccc1, also called compound No. 40) [4-Aminomethylbenzoyl-[Ala26, Ile28, Phg31]-PYY(25-36)] please.
A) 71 ratio

Q) Quote IC50 Ratio (vs PYY(3-36)) reported for Ac-S[dP]RH[Cha][hSer]NL[Aib]TRQR[Cha]-NH2 (SMILES CC(=O)N[C@@H](CO)C(=O)N1CCC[C@@H]1C(=O)N[C@@H](CCCNC(=N)N)C(=O)N[C@@H](Cc1c[nH]cn1)C(=O)N[C@@H](CC1CCCCC1)C(=O)N[C@@H](CCO)C(=O)N[C@@H](CC(N)=O)C(=O)N[C@@H](CC(C)C)C(=O)NC(C)(C)C(=O)N[C@H](C(=O)N[C@@H](CCCNC(=N)N)C(=O)N[C@@H](CCC(N)=O)C(=O)N[C@@H](CCCNC(=N)N)C(=O)N[C@@H](CC1CCCCC1)C(N)=O)[C@@H](C)O, also called compound No. 144) [Ac-[D-Pro24, Cha27,36, Hse28, Aib31]-PYY(23-36)] please.
A) 22 ratio
